- ASSAYED SYSTEM: GSPT1 (Homo sapiens (Human), UniProt P15170+Q96SW2)
- Sequence (P15170 whole entry): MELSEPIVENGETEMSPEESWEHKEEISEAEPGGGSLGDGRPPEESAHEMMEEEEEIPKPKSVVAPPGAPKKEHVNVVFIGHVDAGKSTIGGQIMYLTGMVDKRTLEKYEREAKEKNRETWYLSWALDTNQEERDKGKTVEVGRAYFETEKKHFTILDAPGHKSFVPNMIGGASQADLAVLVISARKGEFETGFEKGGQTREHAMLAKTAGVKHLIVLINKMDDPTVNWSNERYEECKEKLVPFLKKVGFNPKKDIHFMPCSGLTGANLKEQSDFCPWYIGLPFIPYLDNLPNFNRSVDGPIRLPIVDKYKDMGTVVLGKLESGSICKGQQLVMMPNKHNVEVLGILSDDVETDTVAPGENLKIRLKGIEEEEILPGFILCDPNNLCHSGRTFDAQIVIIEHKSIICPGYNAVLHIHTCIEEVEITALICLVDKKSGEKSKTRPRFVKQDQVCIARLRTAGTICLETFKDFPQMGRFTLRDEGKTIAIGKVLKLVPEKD
- Sequence (Q96SW2 whole entry): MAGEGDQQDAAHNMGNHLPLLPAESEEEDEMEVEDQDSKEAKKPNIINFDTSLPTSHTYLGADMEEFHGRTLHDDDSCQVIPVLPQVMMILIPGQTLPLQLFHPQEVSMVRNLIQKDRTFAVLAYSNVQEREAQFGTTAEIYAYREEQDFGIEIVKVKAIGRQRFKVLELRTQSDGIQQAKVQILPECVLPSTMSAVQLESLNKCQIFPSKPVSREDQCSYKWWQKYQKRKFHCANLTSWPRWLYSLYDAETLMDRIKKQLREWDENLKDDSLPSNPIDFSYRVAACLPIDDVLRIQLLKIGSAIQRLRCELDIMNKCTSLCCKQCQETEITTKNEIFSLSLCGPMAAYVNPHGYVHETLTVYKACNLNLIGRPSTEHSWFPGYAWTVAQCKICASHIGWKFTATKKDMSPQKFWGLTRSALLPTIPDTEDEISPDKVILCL
- Sequence (Q16531 2-1140 partner): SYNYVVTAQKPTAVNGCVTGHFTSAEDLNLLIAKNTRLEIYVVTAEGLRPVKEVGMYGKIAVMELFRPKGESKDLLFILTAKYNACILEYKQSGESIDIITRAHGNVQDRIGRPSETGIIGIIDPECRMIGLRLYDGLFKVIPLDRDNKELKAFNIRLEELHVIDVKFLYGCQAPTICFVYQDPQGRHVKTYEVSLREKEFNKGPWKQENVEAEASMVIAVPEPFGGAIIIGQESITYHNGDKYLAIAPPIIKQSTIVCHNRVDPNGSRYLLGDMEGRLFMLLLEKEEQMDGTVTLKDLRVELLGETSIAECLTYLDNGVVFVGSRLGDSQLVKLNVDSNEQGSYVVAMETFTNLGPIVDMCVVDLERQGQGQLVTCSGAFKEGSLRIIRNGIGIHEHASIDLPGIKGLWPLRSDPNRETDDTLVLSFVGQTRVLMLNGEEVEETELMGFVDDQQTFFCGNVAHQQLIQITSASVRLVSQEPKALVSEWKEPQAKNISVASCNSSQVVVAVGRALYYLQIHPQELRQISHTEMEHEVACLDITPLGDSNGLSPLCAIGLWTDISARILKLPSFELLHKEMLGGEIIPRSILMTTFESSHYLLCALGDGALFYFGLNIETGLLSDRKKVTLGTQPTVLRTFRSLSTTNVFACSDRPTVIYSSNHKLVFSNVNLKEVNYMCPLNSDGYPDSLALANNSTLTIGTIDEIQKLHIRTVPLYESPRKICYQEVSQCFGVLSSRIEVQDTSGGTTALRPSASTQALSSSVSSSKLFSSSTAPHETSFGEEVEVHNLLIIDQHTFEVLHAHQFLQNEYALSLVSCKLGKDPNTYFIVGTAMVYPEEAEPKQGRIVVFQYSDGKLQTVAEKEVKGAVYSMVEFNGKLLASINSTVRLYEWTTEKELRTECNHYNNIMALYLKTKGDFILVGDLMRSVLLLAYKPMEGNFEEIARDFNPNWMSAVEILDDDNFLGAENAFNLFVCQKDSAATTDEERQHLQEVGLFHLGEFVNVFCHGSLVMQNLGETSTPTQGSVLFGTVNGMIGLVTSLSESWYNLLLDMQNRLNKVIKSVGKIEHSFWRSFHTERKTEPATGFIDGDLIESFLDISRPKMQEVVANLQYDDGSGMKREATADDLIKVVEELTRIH
- ASSAY COMMENT: immunofluorescence assay for GSPT1 degradation in CAL-51 cells (Example 4)
- Type: cell-based
- SETUP CONDITIONS: 6 hours, read-out: Activity for GSPT1 degradation, Code (DC50)

COMPOUND	DC50
O=C1CCC(N2Cc3ccc(COC(=O)Nc4cc(Cl)cc(OC5CCNC5)c4)cc3C2=O)C(=O)N1 (stereo not drawn)	> 300 nM
O=C1CCC(N2Cc3ccc(COC(=O)Nc4ccc(F)c(OC(F)(F)F)c4)cc3C2=O)C(=O)N1 (stereo not drawn)	< 30 nM
O=C1CCC(N2Cc3ccc(COC(=O)Nc4ccc5c(c4)OCC5)cc3C2=O)C(=O)N1 (stereo not drawn)	30 to 300 nM
O=C1CCC(N2Cc3ccc(COC(=O)Nc4cnc(N5CCCCC5)nc4)cc3C2=O)C(=O)N1 (stereo not drawn)	30 to 300 nM
Cc1c(CN2CCOCC2)cc(NC(=O)OCc2ccc3c(c2)C(=O)N(C2CCC(=O)NC2=O)C3)cc1OC(F)F (stereo not drawn)	< 30 nM
Cc1c(Cl)cc(NC(=O)OCc2ccc3c(c2)C(=O)N(C2CCC(=O)NC2=O)C3)cc1OC1CCNC1 (stereo not drawn)	30 to 300 nM
CCc1cc(NC(=O)OCc2ccc3c(c2)C(=O)N(C2CCC(=O)NC2=O)C3)cc(C)n1 (stereo not drawn)	30 to 300 nM
C[C@@H]1CCCN1c1ccc(NC(=O)OCc2ccc3c(c2)C(=O)N(C2CCC(=O)NC2=O)C3)cn1 (stereo partly drawn)	< 30 nM
Cc1cc(NC(=O)OCc2ccc3c(c2)C(=O)N(C2CCC(=O)NC2=O)C3)cc(C)n1 (stereo not drawn)	30 to 300 nM
Cc1cc(Cl)c(NC(=O)OCc2ccc3c(c2)C(=O)N(C2CCC(=O)NC2=O)C3)cc1Cl (stereo not drawn)	> 300 nM
Cc1c(CN2CCOCC2)cc(NC(=O)OCc2ccc3c(c2)C(=O)N(C2CCC(=O)NC2=O)C3)cc1OC(F)(F)F (stereo not drawn)	< 30 nM
Cc1ccc(NC(=O)OCc2ccc3c(c2)C(=O)N(C2CCC(=O)NC2=O)C3)cc1F (stereo not drawn)	30 to 300 nM
COc1cc(NC(=O)OCc2ccc3c(c2)C(=O)N(C2CCC(=O)NC2=O)C3)cnc1-c1ccccc1 (stereo not drawn)	< 30 nM
O=C1CCC(N2Cc3ccc(COC(=O)Nc4cc(CN5CC6CC5CO6)cc(OC(F)F)c4)cc3C2=O)C(=O)N1 (stereo not drawn)	30 to 300 nM
O=C1CCC(N2Cc3ccc(COC(=O)Nc4cc(CN5CCOCC5)cc(OC(F)(F)F)c4)cc3C2=O)C(=O)N1 (stereo not drawn)	< 30 nM
Cc1c(Cl)cc(NC(=O)OCc2ccc3c(c2)C(=O)N(C2CCC(=O)NC2=O)C3)cc1CN1CC2CC1CO2 (stereo not drawn)	< 30 nM
Cc1cc(Cl)cc(NC(=O)OCc2ccc3c(c2)C(=O)N(C2CCC(=O)NC2=O)C3)c1 (stereo not drawn)	30 to 300 nM
O=C1CCC(N2Cc3ccc(COC(=O)Nc4ccc(F)c(OC(F)F)c4)cc3C2=O)C(=O)N1 (stereo not drawn)	30 to 300 nM
Cc1c(F)cc(NC(=O)OCc2ccc3c(c2)C(=O)N(C2CCC(=O)NC2=O)C3)cc1Cl (stereo not drawn)	30 to 300 nM
CC1CCN(c2ccc(NC(=O)OCc3ccc4c(c3)C(=O)N(C3CCC(=O)NC3=O)C4)cn2)C1 (stereo not drawn)	< 30 nM
O=C1CCC(N2Cc3ccc(COC(=O)Nc4cnc(N5CCCCC5)c(F)c4)cc3C2=O)C(=O)N1 (stereo not drawn)	30 to 300 nM
O=C1CCC(N2Cc3ccc(COC(=O)NC4CCN(c5ccccn5)CC4)cc3C2=O)C(=O)N1 (stereo not drawn)	> 300 nM
O=C1CCC(N2Cc3ccc(COC(=O)Nc4ccc(N5CCCCC5)nn4)cc3C2=O)C(=O)N1 (stereo not drawn)	30 to 300 nM
CC1CCCCN1c1ccc(NC(=O)OCc2ccc3c(c2)C(=O)N(C2CCC(=O)NC2=O)C3)cn1 (stereo not drawn)	< 30 nM
O=C1CCC(N2Cc3ccc(COC(=O)Nc4ccc(N5CCC5)nc4)cc3C2=O)C(=O)N1 (stereo not drawn)	> 300 nM
O=C1CCC(N2Cc3ccc(COC(=O)N4CCC(Oc5ccccc5)C4)cc3C2=O)C(=O)N1 (stereo not drawn)	> 300 nM
Cc1c(Cl)cc(NC(=O)OCc2ccc3c(c2)C(=O)N(C2CCC(=O)NC2=O)C3)cc1OCCN1CCOCC1 (stereo not drawn)	< 30 nM
O=C1CCC(N2Cc3ccc(COC(=O)Nc4ccc5c(c4)CCO5)cc3C2=O)C(=O)N1 (stereo not drawn)	30 to 300 nM
O=C1CCC(N2Cc3ccc(COC(=O)NCC4CC4)cc3C2=O)C(=O)N1 (stereo not drawn)	> 300 nM
O=C1CCC(N2Cc3ccc(COC(=O)Nc4ccc(N5CCC(F)(F)CC5)nc4)cc3C2=O)C(=O)N1 (stereo not drawn)	30 to 300 nM
